Listed next: entries and their corresponding melting point.

Item Smiles: O=C(O)CCCNC(=O)c1cccc(NC(=O)c2ccccc2O)c1
melting point: 172 to 174 °C

Item Smiles: O=C(O)CCCCCNC(=O)c1ccccc1NC(=O)c1ccccc1O
melting point: 165 to 167 °C

Item Smiles: O=C(O)CCCNC(=O)c1ccccc1NC(=O)c1ccccc1O
melting point: 173 to 174 °C

Item Smiles: O=C(O)CCCNC(=O)c1ccccc1NC(=O)c1ccccc1[N+](=O)[O-]
melting point: 142 to 144 °C

Item Smiles: O=C(O)CCCNC(=O)c1ccccc1NC(=O)c1ccc([N+](=O)[O-])cc1O
melting point: 209 to 211 °C

Item Smiles: O=C(O)CCCNC(=O)c1ccccc1NC(=O)c1ccc(Cl)cc1O
melting point: 205 to 206 °C

Item Smiles: COc1ccc(C(=O)Nc2ccccc2C(=O)NCCCC(=O)O)c(O)c1
melting point: 201 to 203 °C

All values here come from patent US7462735B2.
